- EXPERIMENT SUMMARY: Compound half-life in liver microsomes
- EXPERIMENTAL PARAMETERS: mouse, liver microsomes, pH 7.4

SMILES | half-life at 0.5 μM
CC(C)Oc1ccc(C=O)cc1-n1c(CN2CCN(C(=O)COc3ccc(Cl)cc3)CC2)nc2ccccc2c1=O | < 5 min
CC(C)Oc1ccc(C(=O)CN2CCNCC2)cc1-n1c(CN2CCN(C(=O)COc3ccc(Cl)cc3)CC2)nc2ccccc2c1=O | > 90 min
C=CCN1CCN(CC(=O)c2ccc(OC(C)C)c(-n3c(CN4CCN(C(=O)COc5ccc(Cl)cc5)CC4)nc4ccccc4c3=O)c2)CC1 | 4.2 min

###

- Test system: BJeLR
- EXPERIMENT SUMMARY: Concentration-dependent growth inhibition (alamar blue), isogenic BJ cell lines
- Format: cell-based, human

COMPOUND | SYSTEM NAME | Selectivity (IC50BJeH/IC50BJeLR)
CC(C)Oc1ccc(C(=O)CN2CCN(C)CC2)cc1-n1c(CN2CCN(C(=O)COc3ccc(Cl)cc3)CC2)nc2ccccc2c1=O [MPKE] | BJeLR | 1.9
CC(C)Oc1ccc(CN2CCNCC2)cc1-n1c(CN2CCN(C(=O)COc3ccc(Cl)cc3)CC2)nc2ccccc2c1=O [PE, piperazine erastin] | BJeLR | 3
COc1ccc(CN2CCN(CC(=O)c3ccc(OC(C)C)c(-n4c(CN5CCN(C(=O)COc6ccc(Cl)cc6)CC5)nc5ccccc5c4=O)c3)CC2)cc1 [PMB-PKE] | BJeLR | 13
C=CCN1CCN(CC(=O)c2ccc(OC(C)C)c(-n3c(CN4CCN(C(=O)COc5ccc(Cl)cc5)CC4)nc4ccccc4c3=O)c2)CC1 [APKE] | BJeLR | 1.5
CC(C)Oc1ccc(C(=O)Cn2ccnc2)cc1-n1c(CN2CCN(C(=O)COc3ccc(Cl)cc3)CC2)nc2ccccc2c1=O [IKE, imidazole ketone erastin] | BJeLR | 42
CC(C)Oc1ccc(C(=O)CN2CCOCC2)cc1-n1c(CN2CCN(C(=O)COc3ccc(Cl)cc3)CC2)nc2ccccc2c1=O [MKE] | BJeLR | 5
